log10 of MIC reference
- System: up to 32 different microorganisms
- test-summary: in vitro antibacterial activity (MIC), agar dilution on Brain Heart Infusion (BHI) agar with Steers replicator
- Format: cell-based
- assay-conditions: organism code EE; unit assumed
parameter-measured: log10 of MIC (log10 of the value in µg/mL)

compound | data-value
CCC1OC(=O)C(C)C(=O)C(C)C(OC2OC(C)CC(N(C)C)C2O)C(C)(OCC=Cc2ccc3ncc(-c4cccnc4)cc3c2)CC(C)C(=O)C(C)C2NC(=O)OC12C (stereo not drawn) | -1.00
CCC1OC(=O)C(C)C(=O)C(C)C(OC2OC(C)CC(N(C)C)C2O)C(C)(OCC=Cc2ccc(-c3ccon3)s2)CC(C)C(=O)C(C)C2NC(=O)OC12C (stereo not drawn) | -1.00
CCC1OC(=O)C(C)C(=O)C(C)C(OC2OC(C)CC(N(C)C)C2O)C(C)(OCC=Cc2ccc(-n3cccc3)cc2)CC(C)C(=O)C(C)C2NC(=O)OC12C (stereo not drawn) | -0.70
CC[C@H]1OC(=O)[C@H](C)C(=O)[C@H](C)[C@@H](O[C@@H]2O[C@H](C)C[C@H](N(C)C)[C@H]2O)[C@@](C)(OCCNOCc2ccc([N+](=O)[O-])cc2)C[C@@H](C)C(=O)[C@H](C)[C@H]2NC(=O)O[C@@]21C | -0.41
CCC1OC(=O)C(C)C(=O)C(C)C(OC2OC(C)CC(N(C)C)C2O)C(C)(OCC=Cc2ccc3cc(OCCBr)ccc3c2)CC(C)C(=O)C(C)C2NC(=O)OC12C (stereo not drawn) | -0.41
CC[C@H]1OC(=O)[C@H](C)C(=O)[C@H](C)[C@@H](O[C@@H]2O[C@H](C)C[C@H](N(C)C)[C@H]2O)[C@@](C)(OCCNCCCc2ccccc2)C[C@@H](C)C(=O)[C@H](C)[C@H]2NC(=O)O[C@@]21C | -0.70
CCC1OC(=O)C(C)C(=O)C(C)C(OC2OC(C)CC(N(C)C)C2O)C(C)(OCC=Cc2ccc3cc(O)ccc3c2)CC(C)C(=O)C(C)C2NC(=O)OC12C (stereo not drawn) | -1.00
CCC1OC(=O)C(C)C(=O)C(C)C(OC2OC(C)CC(N(C)C)C2O)C(C)(OCCCc2cnc3ccccc3c2)CC(C)C(=O)C(C)C2NC(=O)OC12C (stereo not drawn) | -0.70
CC[C@H]1OC(=O)[C@H](C)C(=O)[C@H](C)[C@@H](O[C@@H]2O[C@H](C)C[C@H](N(C)C)[C@H]2O)[C@@](C)(OCC=NOCc2cnc3ccccc3c2)C[C@@H](C)C(=O)[C@H](C)[C@H]2NC(=O)O[C@@]21C | -0.70
CC[C@H]1OC(=O)[C@H](C)C(=O)[C@H](C)[C@@H](O[C@@H]2O[C@H](C)C[C@H](N(C)C)[C@H]2O)[C@@](C)(OCCNCc2ccc3ncccc3c2)C[C@@H](C)C(=O)[C@H](C)[C@H]2NC(=O)O[C@@]21C | -0.70
CCC1OC(=O)C(C)C(=O)C(C)C(OC2OC(C)CC(N(C)C)C2O)C(C)(OCC=Cc2ccc3ccccc3n2)CC(C)C(=O)C(C)C2NC(=O)OC12C (stereo not drawn) | -0.41
C=CCO[C@@]1(C)C[C@@H](C)C(=O)[C@H](C)[C@H]2N(N)C(=O)O[C@]2(C)[C@@H](CC)OC(=O)[C@H](C)C(=O)[C@H](C)[C@H]1O[C@@H]1O[C@H](C)C[C@H](N(C)C)[C@H]1O | -0.11
CCC1OC(=O)C(C)C(=O)C(C)C(OC2OC(C)CC(N(C)C)C2O)C(C)(OCC=Cc2cn(C)c(=O)n(C)c2=O)CC(C)C(=O)C(C)C2NC(=O)OC12C (stereo not drawn) | -0.41
CCC1OC(=O)C(C)C(=O)C(C)C(OC2OC(C)CC(N(C)C)C2O)C(C)(OCC=Cc2cnc3ccc(C#N)cc3c2)CC(C)C(=O)C(C)C2NC(=O)OC12C (stereo not drawn) | -1.00
CC[C@H]1OC(=O)[C@H](C)C(=O)[C@H](C)[C@@H](O[C@@H]2O[C@H](C)C[C@H](N(C)C)[C@H]2O)[C@@](C)(OCCNCc2cnc3ccccc3c2)C[C@@H](C)C(=O)[C@H](C)[C@H]2NC(=O)O[C@@]21C | -1.00
CC[C@H]1OC(=O)[C@H](C)C(=O)[C@H](C)[C@@H](O[C@@H]2O[C@H](C)C[C@H](N(C)C)[C@H]2O)[C@@](C)(OCC=NOCc2ccc3ccccc3c2)C[C@@H](C)C(=O)[C@H](C)[C@H]2NC(=O)O[C@@]21C | -0.70
CC[C@H]1OC(=O)[C@H](C)C(=O)[C@H](C)[C@@H](O[C@@H]2O[C@H](C)C[C@H](N(C)C)[C@H]2O)[C@@](C)(OCC=NOCc2ccccc2)C[C@@H](C)C(=O)[C@H](C)[C@H]2NC(=O)O[C@@]21C | -0.70
CCC1OC(=O)C(C)C(=O)C(C)C(OC2OC(C)CC(N(C)C)C2O)C(C)(OCC(O)c2ccccc2)CC(C)C(=O)C(C)C2NC(=O)OC12C (single isomer, unassigned) [Example 261B] | 0.49

These data points were gathered from patent USRE39591E1.
